Where these numbers come from: PubChem BioAssay (NCI)

- System: A549/ATCC NSCLC
- method.description: NCI-60 one-dose screen, 48 h (100 = growth as untreated, 0 = no growth, -100 = all killed)
- assay.conditions: 10 µM
Compounds without any hit were thinned out: in the full panel of roughly 83,000, 20% have a hit.
Binary label based on growth with cut-off 90%: below gives criterion met, not below gives criterion not met.

Field: example entries. Status: answers known.
COc1ccc(C(=O)/C=C/c2ccc(OCc3cccc(C(F)(F)F)c3)c(OC)c2)cc1OC; criterion met
O=C(/C=C/c1cccc(Oc2ccc(Cl)cc2)c1)c1ccccc1; criterion not met
CCN(Cc1ccccc1)c1ccc(/C=C2\COc3ccccc3C2=O)cc1; criterion not met
COc1ccc(C(=O)/C=C/c2ccc(OCc3ccc(Cl)cc3)cc2)cc1OC; criterion met
CC(=O)/C=C/c1ccc(OCc2ccc(Cl)cc2)cc1; criterion met

Next compound, please.
Data request: Identify whether the compound CC(=O)/C=C/c1ccc(OCc2ccc(C(C)(C)C)cc2)cc1 records growth below 90%.
Data returned: criterion met
